# Measurement description: Solubility of compound at pH 7
# Assay type: physicochemical
# Condition parameters: buffer
Experimental readout: log10 of solubility (log10 of the value in µM)
Heads up, the numbers here are log10 of solubility in µM units.

Consider the following illustrative entries.
CN1CCc2nc(NC(=O)[C@H]3CC[C@@H](n4cnc5c(N)nc(Cl)nc54)CC3)sc2C1 2.23
Nc1nc(Cl)nc2c1ncn2[C@H]1CC[C@@H](C(=O)Nc2nc3c(s2)CNCC3)CC1 2.18
Cl.Nc1nc(Cl)nc2c1ncn2[C@H]1CC[C@@H](C(=O)Nc2nc3c(s2)CN(C2CC2)CC3)CC1 1.11
Nc1nc(Cl)nc2c1ncn2[C@H]1CC[C@@H](C(=O)Nc2nc(C(F)(F)F)cs2)CC1 0.95
NC(=O)Cc1ccc2nc(NC(=O)[C@H]3CC[C@@H](n4cnc5c(N)nc(Cl)nc54)CC3)sc2c1 0.30

Kindly consider the entry below.
For the compound Nc1nc(Cl)nc2c1ncn2[C@H]1CC[C@@H](C(=O)Nc2nc3c(s2)CS(=O)(=O)CC3)CC1 , what log10 of solubility is on record? 1.57

====

For reference, IC50 measured on Choline/ethanolamine kinase (Homo sapiens):

Nc1ncnc2c1ncn2[C@H]1CC[C@@H](C(=O)Nc2cccc(S(=O)(=O)C(F)(F)F)c2)CC1 > 10 µM

Kindly consider the entry below.
Param readout= IC50; system= Choline/ethanolamine kinase (Homo sapiens); entry= COc1cccc(NC(=O)[C@H]2CC[C@@H](n3cnc4c(N)nc(-c5ccc6cn[nH]c6c5)nc43)CC2)c1 ; returns value. > 10 µM

====

# Measurement description: Metabolic stability in human liver microsomes assessed as intrinsic clearance
# Type: ADME, Microsome
# Condition parameters: read-out: CLH
Quick list: CLint scaled per entry.
Reply with just the number (in mL/min/kg).

Consider the following illustrative entries.
CN1CCc2nc(NC(=O)[C@H]3CC[C@@H](n4cnc5c(N)nc(F)nc54)CC3)sc2C1 13
CN1CCc2nc(NC(=O)[C@H]3CC[C@@H](n4cnc5c(N)nc(Cl)nc54)CC3)sc2C1 33
Cc1csc(NC(=O)[C@H]2CC[C@@H](n3cnc4c(N)nc(F)nc43)CC2)n1 12
CC1(C)Cc2nc(NC(=O)[C@H]3CC[C@@H](n4cnc5c(N)nc(F)nc54)CC3)sc2C(C)(C)N1 56

For the compound Cc1csc(NC(=O)[C@H]2CC[C@@H](n3cnc4c(N)nc(Cl)nc43)CC2)n1 , what CLint scaled is on record? 12

For the compound CC1(C)Cc2nc(NC(=O)[C@H]3CC[C@@H](n4cnc5c(N)nc(Cl)nc54)CC3)sc2C(C)(C)N1 , what CLint scaled is on record? 78

====

# Measurement description: Solubility of compound at pH 7
# Format: physicochemical
# Condition parameters: buffer
Experimental readout: log10 solubility (log10 of the value in µM)
Heads up, the numbers here are log10 of solubility in µM units.

NC(=O)Cc1csc(NC(=O)[C@H]2CC[C@@H](n3cnc4c(N)nc(Cl)nc43)CC2)n1 0.78
Nc1nc(Cl)nc2c1ncn2[C@H]1CC[C@@H](C(=O)Nc2nc3ccc(O)cc3s2)CC1 0.48

For the molecule CC1(C)Cc2nc(NC(=O)[C@H]3CC[C@@H](n4cnc5c(N)nc(F)nc54)CC3)sc2C(C)(C)N1 , what log10 solubility is on record? 2.30

For the molecule COc1cccc2sc(NC(=O)[C@H]3CC[C@@H](n4cnc5c(N)nc(Cl)nc54)CC3)nc12 , what log10 solubility is on record? 0.30

For the molecule COc1ccc2nc(NC(=O)[C@H]3CC[C@@H](n4cnc5c(N)nc(Cl)nc54)CC3)sc2c1 , what log10 solubility is on record? 0.00

For the molecule Nc1nc(Cl)nc2c1ncn2[C@H]1CC[C@@H](C(=O)Nc2nc(-c3ccccc3)cs2)CC1 , what log10 solubility is on record? 0.70

For the molecule CC(C)N1CCc2nc(NC(=O)[C@H]3CC[C@@H](n4cnc5c(N)nc(Cl)nc54)CC3)sc2C1 , what log10 solubility is on record? 1.86

For the molecule NC(=O)c1ccc2nc(NC(=O)[C@H]3CC[C@@H](n4cnc5c(N)nc(Cl)nc54)CC3)sc2c1 , what log10 solubility is on record? 0.48

====

# Measurement description: Metabolic stability in rat hepatocyte assessed as intrinsic clearance
# Assay type: ADME, tissue-based
# Condition parameters: hepatocytes, read-out: CLH
Quick list: CLint scaled per entry.
Reply with just the number (in mL/min/kg).

For the compound CC1(C)Cc2nc(NC(=O)[C@H]3CC[C@@H](n4cnc5c(N)nc(Cl)nc54)CC3)sc2C(C)(C)N1 , what CLint scaled is on record? 97

For the compound CN1CCc2nc(NC(=O)[C@H]3CC[C@@H](n4cnc5c(N)nc(Cl)nc54)CC3)sc2C1 , what CLint scaled is on record? 49

For the compound CN1CCc2nc(NC(=O)[C@H]3CC[C@@H](n4cnc5c(N)nc(F)nc54)CC3)sc2C1 , what CLint scaled is on record? 22

For the compound CC1(C)Cc2nc(NC(=O)[C@H]3CC[C@@H](n4cnc5c(N)nc(F)nc54)CC3)sc2C(C)(C)N1 , what CLint scaled is on record? 84

For the compound Cc1csc(NC(=O)[C@H]2CC[C@@H](n3cnc4c(N)nc(F)nc43)CC2)n1 , what CLint scaled is on record? 34

For the compound Cc1csc(NC(=O)[C@H]2CC[C@@H](n3cnc4c(N)nc(Cl)nc43)CC2)n1 , what CLint scaled is on record? 34

====

# Measurement description: Solubility of compound at pH 7
# Format: physicochemical
# Condition parameters: buffer
Experimental readout: solubility

Consider the following illustrative entries.
CC1(C)Cc2nc(NC(=O)[C@H]3CC[C@@H](n4cnc5c(N)nc(Cl)nc54)CC3)sc2C(C)(C)N1 119 µM
Nc1nc(Cl)nc2c1ncn2[C@H]1CC[C@@H](C(=O)Nc2nc3c(F)cc(F)cc3s2)CC1 1 µM
Cc1cnc(NC(=O)[C@H]2CC[C@@H](n3cnc4c(N)nc(Cl)nc43)CC2)s1 5 µM
Nc1nc(Cl)nc2c1ncn2[C@H]1CC[C@@H](C(=O)Nc2nc3ccc(F)cc3s2)CC1 3 µM

For the compound CN1CCc2nc(NC(=O)[C@H]3CC[C@@H](n4cnc5c(N)nc(F)nc54)CC3)sc2C1 , what solubility is on record? 105 µM

For the compound Cc1csc(NC(=O)[C@H]2CC[C@@H](n3cnc4c(N)nc(F)nc43)CC2)n1 , what solubility is on record? 2 µM

For the compound Nc1nc(Cl)nc2c1ncn2[C@H]1CC[C@@H](C(=O)Nc2nc3c(O)cccc3s2)CC1 , what solubility is on record? 4 µM

For the compound Nc1nc(Cl)nc2c1ncn2[C@H]1CC[C@@H](C(=O)Nc2nc3c(s2)COCC3)CC1 , what solubility is on record? 4 µM

For the compound NC(=O)Cc1cnc(NC(=O)[C@H]2CC[C@@H](n3cnc4c(N)nc(Cl)nc43)CC2)s1 , what solubility is on record? 97 µM

For the compound Cc1csc(NC(=O)[C@H]2CC[C@@H](n3cnc4c(N)nc(Cl)nc43)CC2)n1 , what solubility is on record? 15 µM
